TARGET UNDER TEST: Polyadenylate-binding protein 1 (Homo sapiens)
Sequence (P11940 whole entry): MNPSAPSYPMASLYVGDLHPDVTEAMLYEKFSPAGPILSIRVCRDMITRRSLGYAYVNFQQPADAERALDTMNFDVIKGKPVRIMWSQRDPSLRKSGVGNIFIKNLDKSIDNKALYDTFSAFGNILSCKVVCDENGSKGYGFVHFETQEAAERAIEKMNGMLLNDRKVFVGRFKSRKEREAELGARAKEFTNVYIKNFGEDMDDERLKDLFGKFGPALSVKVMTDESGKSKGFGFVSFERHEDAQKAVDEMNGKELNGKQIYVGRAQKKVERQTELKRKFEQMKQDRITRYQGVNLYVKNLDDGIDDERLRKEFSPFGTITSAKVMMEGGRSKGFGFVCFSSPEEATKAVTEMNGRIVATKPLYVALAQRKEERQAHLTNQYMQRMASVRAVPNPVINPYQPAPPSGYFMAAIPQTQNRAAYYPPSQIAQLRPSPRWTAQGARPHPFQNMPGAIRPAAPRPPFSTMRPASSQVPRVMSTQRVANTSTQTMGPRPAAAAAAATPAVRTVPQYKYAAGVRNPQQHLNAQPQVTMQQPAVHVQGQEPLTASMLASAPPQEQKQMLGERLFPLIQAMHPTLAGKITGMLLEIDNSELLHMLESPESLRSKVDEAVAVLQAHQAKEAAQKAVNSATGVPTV
EXPERIMENTAL DETAILS: PABP1 MLLE–PAM2 binding inhibitor potency, dose response, biochemical, fluorescence polarization, FITC-PAM2 peptide (AID 602259)
Assay type: functional
EXPERIMENTAL PARAMETERS: read-out: IC50_Mean
Active and inactive are the calls of the source.
IC50 overview

Consider the following illustrative entries.
O=C(CN1C(=O)NC2(CCCCC2)C1=O)Oc1ccc2c(C(F)(F)F)cc(=O)oc2c1	38.3 µM (inactive)
COC(=O)c1ccc2c(=O)n(NC(=O)C(c3ccccc3)c3ccccc3)c(=S)[nH]c2c1	> 66 µM (inactive)
O=C(CSc1nc2ccccc2o1)c1cc2ccccc2oc1=O	> 66 µM (inactive)
COc1ccc(SC[C@H](C)CN2CC[C@H](C(C)(C)C)CCC2=O)cc1	> 66 µM (inactive)

Moving on to the next molecule.
Noted IC50 for Fc1c(F)c(F)c(/C=N/NC(=S)Nc2cccnc2)c(F)c1F , tested on Polyadenylate-binding protein 1 (Homo sapiens): > 66 µM (inactive)

---

Reported EC50 values for a set of molecules
TARGET UNDER TEST: Heat shock factor protein 1 (Mus musculus, UniProt P38532)
Sequence (P38532 whole entry): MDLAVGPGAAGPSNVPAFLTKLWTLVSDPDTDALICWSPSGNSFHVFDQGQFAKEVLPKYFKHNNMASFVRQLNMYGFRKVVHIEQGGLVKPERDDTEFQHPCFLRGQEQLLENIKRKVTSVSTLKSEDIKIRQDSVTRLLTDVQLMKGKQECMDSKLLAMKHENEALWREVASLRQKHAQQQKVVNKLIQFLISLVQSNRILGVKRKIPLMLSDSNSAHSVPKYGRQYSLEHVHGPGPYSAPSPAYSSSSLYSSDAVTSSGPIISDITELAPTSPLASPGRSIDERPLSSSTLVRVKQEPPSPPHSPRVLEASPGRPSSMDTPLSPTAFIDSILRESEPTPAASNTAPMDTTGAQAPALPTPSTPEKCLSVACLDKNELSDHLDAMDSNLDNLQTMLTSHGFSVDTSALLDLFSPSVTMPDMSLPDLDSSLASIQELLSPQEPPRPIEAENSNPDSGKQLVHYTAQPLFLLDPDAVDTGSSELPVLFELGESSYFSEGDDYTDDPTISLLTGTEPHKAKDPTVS
EXPERIMENTAL DETAILS: HSF1 potentiators in luciferase reporter cells, confirmation, cell-based, NIH3T3, luminescence, dose retest (AID 435004);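 further: stress induced by proteasome inhibitor MG132 added 30 min after compound; luciferase reporter driven by HSF1 response element in NIH3T3 cells; actives raise luminescence as potentiators of the MG132 stress response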
Format: functional

O=[N+]([O-])c1c(Nc2ccccc2O)cc(Cl)c2nonc12	3.49 µM (inconclusive)

The molecule listed as COc1cccc(/N=C/C2=C(O)OC3(CCCCC3)OC2=O)c1 shows EC50 equal to > 260 µM (inconclusive)

Record O=C(Cc1nc2ccccc2nc1O)c1ccc(Cl)cc1 , field EC50: 198 µM (inconclusive)

---

TARGET UNDER TEST: Protein RecA (Mycobacterium tuberculosis, UniProt P9WHJ3)
EXPERIMENTAL DETAILS: Fluorescence Cell-Free Homogeneous Dose Retest to Identify Inhibitors of RecA-Intein Splicing Activity. [Related pubchem assays (depositor defined):AID2097, AID2223, AID489010, AID492950]
Type: functional
Activity calls are given as the source filed them.
OBSERVATION TYPE: EC50

O=C(O)c1cc(Nc2cc(Cl)c3nonc3c2[N+](=O)[O-])ccc1O	1330 nM (active)

Just so you know, measured EC50 for O=C(CN1C(=O)S/C(=C\C=C\c2ccccc2)C1=O)Nc1ccc(C(=O)O)cc1 came out at > 380000 nM (inactive)

For reference, reported EC50 for Cc1ccc(-n2nc(C)c3c2OC(N)=C(C#N)C3c2ccco2)cc1 (stereo unspecified) stands at 6220 nM (inconclusive)

Entry O=[N+]([O-])c1c(Nc2ccccc2O)cc(Cl)c2nonc12 — recorded EC50 = 1210 nM (active)

EC50 for O=C(NC1CCCC1)C(c1ccc(F)cc1)N(Cc1ccccc1Cl)C(=O)CCl (stereo unspecified) is 215 nM (active)

Recorded EC50 (compound Cc1ccc(S(=O)(=O)N(C(=O)c2ccncc2)c2ccc(OC(=O)c3ccncc3)c3ccccc23)cc1 ): 315 nM (active)

---

Measured IC50 accompanies every entry in the list below.
TARGET UNDER TEST: UniProtKB P03070
Sequence (P03070 whole entry): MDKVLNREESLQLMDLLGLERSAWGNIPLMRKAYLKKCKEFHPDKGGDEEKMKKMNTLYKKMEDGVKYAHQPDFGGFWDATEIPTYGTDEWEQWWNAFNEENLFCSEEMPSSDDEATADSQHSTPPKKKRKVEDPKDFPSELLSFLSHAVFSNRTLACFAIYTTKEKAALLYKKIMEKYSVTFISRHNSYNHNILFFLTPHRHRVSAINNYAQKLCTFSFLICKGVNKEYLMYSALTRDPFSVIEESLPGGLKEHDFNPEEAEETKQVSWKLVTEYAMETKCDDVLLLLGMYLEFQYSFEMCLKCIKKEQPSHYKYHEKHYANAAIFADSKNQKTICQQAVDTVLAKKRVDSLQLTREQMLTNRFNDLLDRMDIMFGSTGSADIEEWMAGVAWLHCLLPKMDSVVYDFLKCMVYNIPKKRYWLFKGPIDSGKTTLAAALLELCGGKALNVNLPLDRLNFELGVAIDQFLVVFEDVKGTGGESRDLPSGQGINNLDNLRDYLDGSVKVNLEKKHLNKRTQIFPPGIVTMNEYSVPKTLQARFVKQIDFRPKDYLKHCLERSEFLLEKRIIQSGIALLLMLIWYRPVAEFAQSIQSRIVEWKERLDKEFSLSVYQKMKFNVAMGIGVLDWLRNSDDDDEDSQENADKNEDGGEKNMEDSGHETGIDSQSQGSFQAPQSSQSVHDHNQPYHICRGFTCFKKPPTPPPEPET
Assay type: functional, Betapolyomavirus macacae
Active and inactive are the calls of the source.

In the examples that follow, each entry is paired with its recorded IC50.
COc1cc(CNc2ccc3c(c2)OCCO3)ccc1OCC(N)=O	40 µM (active)
Oc1ccc(-c2cn3ccccc3n2)cc1O	5.28 µM (active)
O=C1NC(=O)C(=Cc2ccccc2OCCOc2ccc([N+](=O)[O-])cc2)C(=O)N1	55.9 µM (active)
COc1cc(OC)cc(C(=O)NCC(=O)N2CCN(c3ccc(O)cc3)CC2)c1	65.2 µM (active)
O=C(Nc1ccc(O)cc1)c1ccc2c(c1)C(=O)N(Cc1ccco1)C2=O	9.65 µM (active)

Item COc1cc(/C=N/NC2=NCCCCC2)ccc1O ; assay system UniProtKB P03070; IC50 reported as 6.11 µM (active)

---

TARGET UNDER TEST: Corticotropin-releasing factor receptor 2/Corticotropin-releasing factor-binding protein (Homo sapiens, UniProt P24387+Q13324)
Sequence (Q13324 whole entry): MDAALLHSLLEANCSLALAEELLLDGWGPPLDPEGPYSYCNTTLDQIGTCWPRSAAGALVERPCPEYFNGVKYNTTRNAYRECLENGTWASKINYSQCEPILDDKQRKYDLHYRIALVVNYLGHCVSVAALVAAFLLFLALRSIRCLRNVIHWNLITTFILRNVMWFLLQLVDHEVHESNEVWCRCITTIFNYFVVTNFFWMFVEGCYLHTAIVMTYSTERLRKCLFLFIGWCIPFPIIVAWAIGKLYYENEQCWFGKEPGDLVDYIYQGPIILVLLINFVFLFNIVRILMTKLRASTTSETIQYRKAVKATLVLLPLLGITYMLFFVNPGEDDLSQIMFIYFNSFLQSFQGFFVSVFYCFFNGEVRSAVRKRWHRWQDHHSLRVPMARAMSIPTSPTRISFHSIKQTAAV
Sequence (P24387 whole entry): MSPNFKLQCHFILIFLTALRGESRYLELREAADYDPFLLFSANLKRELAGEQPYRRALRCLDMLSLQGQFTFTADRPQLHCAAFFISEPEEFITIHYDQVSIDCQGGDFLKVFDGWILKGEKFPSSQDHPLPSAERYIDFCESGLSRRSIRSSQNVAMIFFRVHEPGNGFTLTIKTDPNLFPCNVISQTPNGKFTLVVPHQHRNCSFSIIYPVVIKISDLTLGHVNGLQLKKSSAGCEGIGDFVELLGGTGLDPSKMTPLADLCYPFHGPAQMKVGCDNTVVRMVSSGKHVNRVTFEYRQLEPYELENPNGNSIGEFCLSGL
EXPERIMENTAL DETAILS: Dose Response confirmation of uHTS hits for small molecule antagonists of the CRF-binding protein and CRF-R2 receptor complex.
Assay type: functional
EXPERIMENTAL PARAMETERS: read-out: IC50_Mean
The source made the active and inactive calls.
Below, each of the compounds is paired with its reported IC50 value.

Cc1cccc(C)c1NC(=O)c1sccc1SCc1cccc(C(F)(F)F)c1	> 47.1 µM (inactive)

According to the records, this compound Cc1cc(/C=C(/C#N)C(=O)O)c(C)n1-c1cccc2ccccc12 displays IC50 of 6.86 µM (active)

---

TARGET UNDER TEST: RNA-binding protein pos-1 (Caenorhabditis elegans, UniProt G5EF15)
Sequence (G5EF15 whole entry, the tested form may be a part): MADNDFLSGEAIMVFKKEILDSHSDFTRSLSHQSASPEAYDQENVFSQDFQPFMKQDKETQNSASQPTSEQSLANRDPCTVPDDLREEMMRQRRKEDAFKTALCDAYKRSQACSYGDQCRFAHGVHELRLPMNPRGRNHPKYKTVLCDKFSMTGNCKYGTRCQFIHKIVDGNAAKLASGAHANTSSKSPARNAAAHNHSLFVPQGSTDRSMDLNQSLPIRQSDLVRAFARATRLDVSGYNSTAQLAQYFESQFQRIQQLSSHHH
EXPERIMENTAL DETAILS: inhibitors of POS-1/mex-3 RNA binding, dose response, biochemical, fluorescence polarization (AID 1964);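 further: purified POS-1 fused to maltose binding protein made in E. coli; potency of compounds blocking POS-1 binding to fluorescent RNA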
Calls of active or inactive are those of the source.
OBSERVATION TYPE: EC50

Recorded EC50 for O=C1NC(=O)N(Cc2ccco2)C(=O)/C1=C/NNC(=O)c1ccccc1O on RNA-binding protein pos-1 (Caenorhabditis elegans, UniProt G5EF15) was 15.5 µM (active)

Measured on RNA-binding protein pos-1 (Caenorhabditis elegans, UniProt G5EF15), COc1ccc(N/C=C2/C(=O)N(c3cccc(C)n3)C(=O)c3ccccc32)c(OC)c1 has a documented EC50 of > 300 µM (not active)

Summary: CCn1c(=N)c(S(=O)(=O)c2ccc(F)cc2)cc2c(=O)n3ccccc3nc21 , RNA-binding protein pos-1 (Caenorhabditis elegans, UniProt G5EF15), EC50 = 7.64 µM (active)

Reading of EC50 for CC1=CC(=C(C#N)c2nc3ccccc3s2)C=C(C)N1CC1CCCO1 (configuration not stated) with RNA-binding protein pos-1 (Caenorhabditis elegans, UniProt G5EF15): 12.3 µM (inconclusive)

I looked up COc1ccc(NC(=O)c2ccc(NCCCN3CCOCC3)c([N+](=O)[O-])c2)cc1 and its EC50 for RNA-binding protein pos-1 (Caenorhabditis elegans, UniProt G5EF15) was > 300 µM (not active)

For the compound Oc1ccc(-c2cn3ccccc3n2)cc1O , the measured EC50 on RNA-binding protein pos-1 (Caenorhabditis elegans, UniProt G5EF15) was > 300 µM (not active)

O=C1C=CC(=O)C(C2=C3C(=O)N(CCc4ccccc4)CC(=O)N3CCC2)=C1 on RNA-binding protein pos-1 (Caenorhabditis elegans, UniProt G5EF15) gives EC50 = 45.9 µM (active)

---

These molecules were tested on UniProtKB P11712; AC50 is the recorded read-out.
Sequence (P11712 whole entry): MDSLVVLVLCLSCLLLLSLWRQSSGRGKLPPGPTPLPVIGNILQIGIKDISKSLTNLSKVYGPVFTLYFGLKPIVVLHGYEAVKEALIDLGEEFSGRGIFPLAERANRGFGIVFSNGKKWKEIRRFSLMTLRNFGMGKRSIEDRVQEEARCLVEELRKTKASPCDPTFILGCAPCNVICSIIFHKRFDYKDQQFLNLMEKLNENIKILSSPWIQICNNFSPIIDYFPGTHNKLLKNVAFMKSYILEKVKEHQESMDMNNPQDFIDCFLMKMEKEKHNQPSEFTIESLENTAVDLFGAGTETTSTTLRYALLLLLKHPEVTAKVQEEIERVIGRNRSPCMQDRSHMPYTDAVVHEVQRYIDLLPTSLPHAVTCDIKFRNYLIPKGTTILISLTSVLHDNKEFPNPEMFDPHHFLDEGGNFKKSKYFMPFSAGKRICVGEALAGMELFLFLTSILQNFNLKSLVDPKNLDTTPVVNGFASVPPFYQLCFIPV

Below, each entry is followed by its recorded AC50 result.
CCOc1ccccc1NC(=O)C1=C(C)NC(=O)NC1c1cccc(OC)c1OC (configuration not stated)	25.1 µM (inconclusive)
CCCCN(CC)S(=O)(=O)N1CCC(C(=O)NCCCN2CCOCC2)CC1	25.1 µM (inconclusive)
Cc1nc2cnc(N3CCOCC3)nc2n(Cc2ccc(F)cc2)c1=O	31.6 µM (inconclusive)

Summary line: COC(=O)c1ccc(NC(=O)c2ccccc2)o1 , UniProtKB P11712, reported AC50 = 17.8 µM (inconclusive)

---

TARGET UNDER TEST: Corticotropin-releasing factor receptor 2/Corticotropin-releasing factor-binding protein (Homo sapiens, UniProt P24387+Q13324)
EXPERIMENTAL DETAILS: Dose Response confirmation of uHTS hits for small molecule antagonists of the CRF-binding protein and CRF-R2 receptor complex.
Assay type: functional
EXPERIMENTAL PARAMETERS: read-out: IC50_Mean
Active and inactive are the calls of the source.
IC50 listing for selected compounds.

CN(C)c1ccc(C=C2C(=O)OC3(CCCC3)OC2=O)cc1	2.41 µM (active)
CCOC(=O)C1CCN(c2nc3cc(OC)ccc3cc2C#N)CC1	> 47.1 µM (inactive)
CCS(=O)(=O)C1=NSC2=NC(=O)/C(=C\c3cc(C)n(-c4cccc(OC)c4)c3C)C(=N)N21	5.1 µM (active)
Cc1noc(C)c1COC(=O)c1cccc(S(=O)(=O)N2c3ccccc3CC2C)c1 (stereo not given)	> 47.1 µM (inactive)

Consider the additional compound presented here.
IC50 recorded for this compound, O=C(COc1ccccc1)NCc1ccco1 , is > 47.1 µM (inactive)
